# Protocol Text: yeast growth modulation, basal conditions, primary screen, YJM789 clinical isolate, OD600, 24 h (AID 1089);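 further: growth of clinical yeast isolate S. cerevisiae YJM 789 seeded 1000 cells per well; test concentration not given here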
# Experimental Context: S. cerevisiae YJM789 growth, higher = more signal, called active from +8 up or from −8 down
Endpoint: z-score

- CON=C1c2cc(OC)ccc2O[C@H](c2cccc(OC)c2)[C@H]1O: -0.976
- CCOC(=O)[C@H](Cc1ccccc1)NC(=O)CCC1CC(OC(=O)NCCc2ccc(F)cc2)CC2(CCCC(COC(=O)NCc3cccc(C(F)(F)F)c3)O2)O1 (stereo partly specified): 0.563
- C[C@@H]1CC[C@H]2C(=O)OC(Cc3ccccc3)CN2[C@H]1c1ccc(Br)cc1 (stereo partly specified): 0.127
- O=C1[C@H]2[C@H]3[C@H](O)[C@H](O)CC(=NOC[C@@H](O)COCc4ccco4)[C@@H]3CC[C@H]2C(=O)N1C1CCCCC1: 1.61
- CC(=O)OC[C@H]1O[C@H](C#CCC2CCCCC2)C=C[C@@H]1OC(C)=O: 0.877
- COC(=O)CC=C1c2ccccc2[C@H](OC)[C@H]1C: 0.649
- CCOC(=O)[C@H](Cc1ccccc1)NC(=O)CCC1CC(OC(=O)NCc2cccc3ccccc23)CC2(CCCC(COC(=O)NCc3ccc4c(c3)OCO4)O2)O1 (stereo partly specified): 0.549
- CC(=O)OC[C@H]1O[C@H](CC=NO[C@@H](C)c2cc(-c3c(C)cc(C)cc3C)no2)C=C[C@@H]1OC(C)=O: 0.208
- COC(=O)[C@H](C)NC(=O)CCC1CC(OC(=O)NCCc2ccc(F)cc2)CC2(CCCC(COC(=O)NCCOc3ccccc3)O2)O1 (stereo partly specified): -0.233
- CC(CCN1CCCc2nc(C)c(C)cc21)=NOC[C@@H](O)COCc1ccco1: -1.86
- O=C1C=C[C@@H](O)[C@@H]2[C@@H]3C(=O)N(C4CCCCC4)C(=O)[C@@H]3CC[C@@H]12: 0.126
- CC(CCN1CCCc2nc(C)c(C)cc21)=NO[C@H](C)c1cn([C@H](CO)Cc2ccccc2)nn1: 1.09
- COC(=O)[C@H](C)NC(=O)CCC1CC(OC(=O)NCCc2ccc(F)cc2)CC2(CCCC(COC(=O)NCCc3ccccc3OC)O2)O1 (stereo partly specified): 0.522
- CCN1C(=O)[C@H]2[C@H]3[C@H](O)[C@H](O)CC(=NO[C@H](C)c4cn([C@@H]5COC[C@H]5O)nn4)[C@@H]3CC[C@H]2C1=O: 0.415
- CC(C)CON=C1[C@H]2CCn3c(=O)n(C)c(=O)n3[C@H]2[C@H](O)[C@@H]2O[C@H]12: 0.0116
- CC(=O)OC[C@H]1O[C@H](CC=NO[C@H](C)c2cn([C@@H]3COC[C@H]3O)nn2)C=C[C@@H]1OC(C)=O: -2
